# Tested on: UACC-257 melanoma
# Test Description: NCI-60 one-dose screen, 48 h (100 = growth as untreated, 0 = no growth, -100 = all killed)
# Condition: 1 µM
The panel holds about 83,000 compounds, 20% with a hit somewhere; the sample as a whole holds those more often. Active and inactive are the calls of the source. Rule for the calls: active = growth percent below 10; inactive = the rest.
Measurement Type: growth

Below, 2 compounds whose answers are already recorded.
[
  {
    "Smiles Text": "CC/C(=C(\\c1ccc(O)cc1)c1ccc(OCCNC)cc1)c1ccccc1",
    "growth": "95.3% (inactive)"
  },
  {
    "Smiles Text": "CC/C(=C(/c1ccc(O)cc1)c1ccc(OCCN(C)C(=O)CCOCCNC(=O)Cc2ccc3c(c2)CN([C@@H]2CCC(=O)NC2=O)C3=O)cc1)c1ccccc1",
    "growth": "91% (inactive)"
  }
]

Q. Give its growth value. Item: CC/C(=C(/c1ccc(O)cc1)c1ccc(OCCN(C)C(=O)COCCOCCNC(=O)c2ccc3c(c2)CN([C@@H]2CCC(=O)NC2=O)C3=O)cc1)c1ccccc1
A. 96.2% (inactive)

Q. Now give it for CC/C(=C(/c1ccc(O)cc1)c1ccc(OCCN(C)C(=O)COCCOCCNC(=O)Cc2ccc3c(c2)CN([C@@H]2CCC(=O)NC2=O)C3=O)cc1)c1ccccc1 too.
A. 101% (inactive)

Q. Next compound up: CC/C(=C(\c1ccc(O)cc1)c1ccc(OCCN(C)C(=O)CCOCCNC(=O)c2ccc3c(c2)CN([C@@H]2CCC(=O)NC2=O)C3=O)cc1)c1ccccc1
A. 101% (inactive)

====

# Tested on: UO-31 renal
# Test Description: NCI-60 one-dose screen, 48 h (100 = growth as untreated, 0 = no growth, -100 = all killed)
# Condition: 10 µM unless noted
About 83,000 compounds went through this panel and 20% of them were active in at least one assay; those are over-represented in the sample as a whole.
Listed molecules paired with reported growth
The figure you give is taken to be in %; do not add the unit.

The cases that follow already have their growth on record.
[
  {
    "Molecule": "CN1CCN(C(=O)CCN(C(=O)Oc2cc3c(c4ccccc24)[C@H](CCl)CN3C(=O)c2cc3cc(OCCCN4CCC4)ccc3[nH]2)[C@H]2CCSSC2)CC1",
    "growth / %": -37.7
  },
  {
    "Molecule": "Cc1nc(Nc2ccccn2)sc1C1=NNC(c2ccccc2F)C1 (configuration not stated)",
    "growth / %": 48
  },
  {
    "Molecule": "O=C(Nc1nc2ccccc2s1)Nc1ccccc1Cl",
    "growth / %": 66.8
  }
]

Q. Given COc1ccc(/C=C/c2nc3ccccc3c(=O)n2CC(=O)Nc2ccccc2)cc1 , state its recorded growth.
A. -33

Q. Could you do the same for Cc1[nH]nc2ccc3nc(-c4cn[nH]c4C(F)(F)F)c4c(c3c12)CCCC4 , please?
A. -30.5

Q. What about this molecule? COc1ccc(/C=C/C(=O)c2ccc(OC)c(S(N)(=O)=O)c2)c(C(F)(F)F)c1
A. 25.6

====

# System: SNB-19 CNS
# Test Description: NCI-60 one-dose screen, 48 h
# Condition: 10 µM unless noted
About 83,000 compounds went through this panel and 20% of them were active in at least one assay; those are over-represented in the sample as a whole. The source made the active and inactive calls. The calls were made as follows: active = growth percent below 10; inactive = the rest.
API: response.call in TRUE (active), FALSE (inactive)

# example entries with known answers
[
  {
    "Molecule": "O=C(Cn1c(/C=C/c2ccc([N+](=O)[O-])cc2)nc2ccccc2c1=O)Nc1ccccc1",
    "Assigned Class": "FALSE"
  },
  {
    "Molecule": "Cc1ccc(C2CC(c3ccc(NC(=S)Nc4ccccc4)cc3)=NN2c2ccc(S(N)(=O)=O)cc2)cc1 (centres undefined)",
    "Assigned Class": "FALSE"
  }
]

Q. Recorded call for COc1ccc(-c2nc3ccc(-c4nnc(SCC(=O)Nc5ccc(/C(C)=N\O)cc5)o4)cc3[nH]2)cc1 ?
A. FALSE

Q. Then Cn1cc(-c2cc(N)n3nc(-c4c[nH]c5ccccc45)cc3n2)c2cc(Cl)ccc21 ?
A. TRUE

Q. Continue with O=c1c(-c2nc(-c3ccccc3)c(-c3ccccc3)[nH]2)coc2ccc(F)cc12
A. FALSE

====

# System: CAKI-1 renal
# Test Description: NCI-60 one-dose screen, 48 h (100 = growth as untreated, 0 = no growth, -100 = all killed)
# Condition: 10 µM unless noted
Compounds without any hit were thinned out: in the full panel of roughly 83,000, 20% have a hit.
# if measured growth < 40%: Satisfied  # else: Not satisfied

[
  {
    "Molecule": "O=C(Nc1nc2ccccc2s1)Nc1ccccc1Cl",
    "Assigned Class": "Not satisfied"
  },
  {
    "Molecule": "O=C(NC(=S)N1CCN(c2ncnc3c2cnn3-c2ccccc2)CC1)c1ccc(F)cc1",
    "Assigned Class": "Not satisfied"
  },
  {
    "Molecule": "Cc1nc(Nc2ccccn2)sc1C1=NNC(c2ccccc2F)C1 (stereo not given)",
    "Assigned Class": "Not satisfied"
  },
  {
    "Molecule": "N#Cc1c(-c2ccc(F)cc2)nc(SCc2ccccc2)nc1N1CCNCC1",
    "Assigned Class": "Satisfied"
  },
  {
    "Molecule": "O=C(CSc1nnc(-c2ccc(-c3nc4ccc(Cl)cc4[nH]3)cc2)o1)Nc1ccc(Br)cc1",
    "Assigned Class": "Satisfied"
  },
  {
    "Molecule": "C=CC(=O)Nc1ccc(C(=O)/C=C/c2ccc(N(C)C)cc2)c(O)c1",
    "Assigned Class": "Satisfied"
  },
  {
    "Molecule": "COc1ccc(-c2cc(C(=O)OCc3ccc(Br)cc3)nn2-c2ccc(S(C)(=O)=O)cc2)cc1OC",
    "Assigned Class": "Not satisfied"
  },
  {
    "Molecule": "C[C@H](NC(=O)c1ccc2c(-c3ccc(C(F)(F)F)cc3)cccc2c1)c1ccccn1",
    "Assigned Class": "Satisfied"
  },
  {
    "Molecule": "Cc1ccccc1Nc1nnc(-c2c[nH]c3ccccc23)o1",
    "Assigned Class": "Satisfied"
  }
]

As a next step, examine the molecule that follows.
Q. I'd appreciate it if you could check whether CC1CCc2c(sc3nc(SCC(=O)c4cccc(Br)c4)n(-c4ccccc4)c(=O)c23)C1 (stereo not given) has growth smaller than 40%.
A. Satisfied

====

# Tested on: NCI-H460 lung
# Test Description: NCI-60 one-dose screen, 48 h
# Condition: 10 µM unless noted
# Procedure: Growth inhibition of the NCI-H460 human Non-Small Cell Lung tumor cell line is measured as a screen for anti-cancer activity. Cells are grown in 96 well plates and exposed to the test compound for 48 hours. Compounds are tested at a single concentration, which is 10^-5 M for most compounds. The reported endpoint is percent growth (GI% or GIPRCNT), where numbers from 0 - 100% represent growth inhibition, and numbers from -100% - 0 represent cell death. […]
Compounds without any hit were thinned out: in the full panel of roughly 83,000, 20% have a hit. Calls of active or inactive are those of the source. The calls were made as follows: active = growth percent below 10; inactive = the rest.
The reply should be one of these categories: active, inactive

Solved entries (count: 3):
[
  {
    "Molecule": "CN1C(=O)C2(C(C#N)=C(c3ccc(Cl)cc3)Nc3c2c(-c2ccccc2)nn3-c2ccccc2)c2ccccc21 (centres undefined)",
    "Assigned Class": "inactive"
  },
  {
    "Molecule": "O=C(c1ccc(Cl)cc1)C1[C@H](c2ccccc2Cl)[C@@H](c2ccccc2)NC12C(=O)Nc1ccccc12 (some centres undefined)",
    "Assigned Class": "active"
  },
  {
    "Molecule": "COc1ccc2[nH]c(=O)c(CSc3ccccc3Nc3nccc(-c4ccc(Cl)cc4)n3)cc2c1",
    "Assigned Class": "inactive"
  }
]

Shifting focus to the molecule that follows.
Q. Record request — test call for COc1ccc(C(=O)/C=C/c2ccc3c(c2)OCCO3)cc1S(N)(=O)=O
A. inactive

====

# Test system: DU-145 prostate
# Test Description: NCI-60 one-dose screen, 48 h
# Condition: 10 µM unless noted
Compounds without any hit were thinned out: in the full panel of roughly 83,000, 20% have a hit. The source made the active and inactive calls. Rule for the calls: active = growth percent below 10; inactive = the rest.
Assign a class; possible classes are True for active, False for inactive

A selection of reference data follows.
[
  {
    "Compound": "COc1ccc(-c2cc(C(=O)OCc3ccc(Br)cc3)nn2-c2ccc(S(C)(=O)=O)cc2)cc1OC",
    "Assigned Class": "False"
  },
  {
    "Compound": "S=C(Nc1ccc(OCc2nc3ccc(Cl)cc3[nH]2)cc1)NC1CCCCC1",
    "Assigned Class": "True"
  },
  {
    "Compound": "O=CNc1cccc(-n2cnc3cc(-c4ccc(O)cc4)ccc32)c1",
    "Assigned Class": "False"
  },
  {
    "Compound": "COc1ccc(N=Nc2c(N)nn3c(-c4cc5cc(Br)ccc5oc4=O)ccnc23)cc1",
    "Assigned Class": "False"
  },
  {
    "Compound": "COC(=O)c1cccc(Oc2ccc(NC(=O)Nc3cc(C(F)(F)F)ccc3F)cc2)c1",
    "Assigned Class": "False"
  }
]

Q. How did this test come out for CCOc1ccc2[nH]c(=O)c(C(c3nnnn3CC3CCCO3)N3CCN(Cc4ccccc4)CC3)cc2c1 (centres undefined) ?
A. False

Q. Same lookup for Cn1ncc2c(N)nc(Oc3ccccc3-c3ccccc3)nc21 , please.
A. False

Q. O=C1NC(=NC23CC4CC(CC(C4)C2)C3)N/C1=C\c1ccc2ncccc2c1 ?
A. True

Q. Another compound: C[C@@H]1[C@H]2C[C@@H](C[C@H]1NCc1nc3ccccc3n1C1CCCCCC1)C2(C)C
A. False

Q. Can you handle Cc1ccc(C(=O)Nc2cc(-c3ccncc3)cc(C(F)(F)F)c2)cc1C#Cc1cnc2cccnn12 next?
A. False

Q. Queued: O=C1Nc2ccc(F)cc2/C1=C/C(=O)c1cc2ccccc2oc1=O
A. False

Q. What do we get for O=C(CSc1nc2ccccc2c(=O)[nH]1)NNC(=O)c1ccccc1Cl ?
A. False

Q. Proceed to N#CC1=C(c2cccs2)Nc2c(c(-c3ccccc3)nn2-c2ccccc2)C12C(=O)Nc1ccc(Cl)cc12 (centres undefined)
A. False

Q. # repeat for Cc1nc(Nc2ccccn2)sc1C1=NNC(c2ccccc2F)C1 (centres undefined)
A. False

Q. Likewise for CCCCCCCCc1ccc(C(=O)Nc2ccc(C)cc2C(=O)O)cc1 ?
A. False
